- experimentalTarget: T1, recombinant human IL-6 (human, UniProt P05231 30-212, labeled with radioactive iodine)
- T1 construct: Labeled probe in solution, added to wells that carry the synthetic peptides; also called IL-6 ligand; Interleukin-6
- experimentNotes: radioiodinated IL-6 on peptide array
Assign Counts/minute bound to each entry below.
Answers are plain numbers, in counts/minute.

SCTVDYSTVYFVNIEVWVEAENAL [Peptide E19]    3320
MPKSYLPQTVRQGGYMPQ [Peptide E91]    1230
WKTLPPFEANGKILDYEVTLTRWK [Peptide E36]    1460
RQQYFKQNCSQHESSPDISHFERS [Peptide E82]    1090
HSNFTAVCVLKEKCMDYFHVNANY [Peptide E5]    1290

I have 8 binders here; please give me Counts/minute bound for each one.
1. ALFIFLTTESTGELLDPCGYISPE [Peptide E2]
2. VSVVEIEANDKKPFPEDLKSLDLF [Peptide E70]
3. SVIILKYNIQYRTKDASTWSQIPP [Peptide E26]
4. KKPFPEDLKSLDLFKKEKINTEGH [Peptide E71]
5. AAVLTIPACDFQATHPVMDLKAFP [Peptide E42]
6. PKFAQGEIEAIVVPVCLAFLLTTL [Peptide E62]
7. HINFDPVYKVKPNPPHNLSVINSE [Peptide E22]
8. QISDHISQSCGSGQMKMFQEVSAA [Peptide E86]

Output:
1: 1530; 2: 1300; 3: 2830; 4: 2690; 5: 1120; 6: 2790; 7: 1730; 8: 1240

Record TVRNLVGKSDAAVLTIPACDFQAT [Peptide E41] . Reported Counts/minute bound: 1100

The reported numbers originate from patent US20040092720A1.
